# protocolDescription: Inhibition of testerone 5-alpha-reductase at 100 ug/mL
readout: inhibition (%)

Solved cases (3 shown):
compound	unitsLabel	measuredResult
COC1=CC(=O)c2cc(-c3ccccc3)c3cc(O)c(OC)cc3c2C1=O	%	65.6
COc1cc(O)ccc1C(=O)/C=C/c1ccccc1	%	22.8
COC1=CC(=O)C(Cc2oc3cc(OC)c(O)cc3c2-c2ccccc2)=CC1(C/C=C/c1ccccc1)OC (stereo unspecified)	%	17

1 = C=CC(c1ccccc1)c1cc(O)c(OC)cc1OC (stereo unspecified)
2 = COc1cc2oc(Cc3cc(OC)c(OC)cc3OC/C=C/c3ccccc3)c(-c3ccccc3)c2cc1O
3 = CC1(C)[C@@H](O)CC[C@]2(C)[C@H]3C(=O)C=C4[C@@H]5C[C@@](C)(C(=O)O)CC[C@]5(C)CC[C@@]4(C)[C@]3(C)CC[C@@H]12
Task: Highest inhibition first, then in falling order down to the smallest. Response field: labels, in requested order.
Result: 3, 1, 2
(3: 87.1%, 1: 51.8%, 2: 18.1%)

The measured values listed here are drawn from ChEMBL document CHEMBL1146582.
